src = patent US20230159510A1

system: HCT116 WT cells; assay: HCT116 proliferation assay, WT cells (CellTiter-Glo, 6 days); assay type: cell-based; conditions: Homo sapiens, HCT-116, 144 h, read-out: Prolif_HCT116-WT IC50
outcome-measure: IC50 (µM)

Reference set (4 entries):
>  <compound>
Cc1cc2cc(C(=O)N(Cc3ccc4cn[nH]c4c3)Cc3ccc(C(F)(F)F)cn3)ccc2nc1N

>  <unit-of-measure>
µM

>  <IC50>
1.3

$$$$
>  <compound>
Cc1c(Br)c(N)nc2ncc(C(=O)N(Cc3ccc(C#N)cn3)[C@H](C)c3ncccn3)cc12

>  <unit-of-measure>
µM

>  <IC50>
4.12

$$$$
>  <compound>
CC[C@H](c1ncccn1)N(Cc1ccc(C(F)(F)F)cn1)C(=O)c1cnc2nc(N)c(Br)cc2c1 (single isomer, unassigned)

>  <unit-of-measure>
µM

>  <IC50>
2.08

$$$$
>  <compound>
C[C@H](c1ncccn1)N(Cc1ccc(Br)nn1)C(=O)c1ccc2nc(N)c(Br)cc2c1

>  <unit-of-measure>
µM

>  <IC50>
4.4

$$$$

I. Cc1cc2cc(C(=O)N(Cc3ccc(C(F)(F)F)cn3)[C@H](C)c3ncccn3)c(Cl)cc2nc1N
II. Cc1cc2cc(C(=O)N(Cc3ccc(C(F)(F)F)cn3)C(C)c3cccc(C#N)n3)ccc2nc1N (centres unmarked)
Compare the recorded IC50 of I and II ; state which is larger. Answer with the label corresponding to your selection.
II
(II: 6.8 µM, I: 1.35 µM)

###

system: HCT116 MTAP null cells; assay: HCT116 proliferation assay, MTAP null cells (CellTiter-Glo, 6 days); format: cell-based; conditions: HCT116-MTAP null, 144 h, read-out: Protif_ HCT116-MTAP null IC50
outcome-measure: IC50 (µM)

A. Cc1cc2cc(C(=O)N(CCC3CC3)Cc3ccc(C(F)(F)F)cn3)ccc2nc1N
B. C[C@H](c1ncccc1F)N(Cc1ccc(C#N)cn1)C(=O)c1cnc2nc(N)c(Br)cc2c1
C. Cc1cc2cc(C(=O)N(Cc3ccc(C(F)(F)F)cn3)Cc3ncccc3Cl)ccc2nc1N
D. Cc1cc2cc(C(=O)N(Cc3ncc(C(F)(F)F)s3)[C@H](C)c3ncccn3)ccc2nc1N (single isomer, unassigned)
Rank the 4 compounds: largest IC50 first, smallest last. Please respond with the labels ordered as the question requires.
A, B, D, C

P. Cc1cc2cc(C(=O)N(Cc3ccc(C(F)(F)F)cn3)[C@@H](C)c3ncn(C)n3)c(F)cc2nc1N (single isomer, unassigned)
Q. Cc1cc2cc(C(=O)N(Cc3ncccc3F)[C@@H]3CCc4nc(C(F)(F)F)ccc43)ccc2nc1N (single isomer, unassigned)
R. COCC(COC)N(Cc1ccc(C(F)(F)F)cn1)C(=O)c1ccc2nc(N)c(C)cc2c1
S. Cc1cc2cc(C(=O)N(Cc3ccc(C(F)(F)F)cn3)[C@@H]3COCC[C@@H]3O)ccc2nc1N (single isomer, unassigned)
T. Cc1cc2cc(C(=O)N(Cc3ccc(N4CCC(F)(F)C4)cn3)[C@H](C)c3ncccn3)ccc2nc1N
// ranking: key=IC50, reverse=True Please respond with the labels ordered as the question requires.
Q, P, R, S, T

a. CCc1csc(CN(Cc2ccc(C(F)(F)F)cn2)C(=O)c2ccc3nc(N)c(C)cc3c2)n1
b. Cc1cc2cc(C(=O)N(Cc3ccc(N4CCCC4)cc3)Cc3ccc(C(F)(F)F)cn3)ccc2nc1N
c. C#Cc1cc2cc(C(=O)N(Cc3ccc(C(F)(F)F)cn3)[C@H](C)c3ncccc3F)cnc2nc1N
d. Cc1cc2cc(C(=O)N(Cc3ccc(C(F)(F)F)cn3)CC(C)C#N)ccc2nc1N (stereo not shown)
e. Cc1cc2cc(C(=O)N(Cc3ccc(C(F)(F)F)nn3)[C@@H]3CCc4cccnc43)ccc2nc1N
Could you please order the items by IC50, going from the lowest number to the highest? Please respond with the labels ordered as the question requires.
e, d, a, c, b

###

test system: HCT116 WT cells; assay: HCT116 proliferation assay, WT cells (CellTiter-Glo, 6 days); assay type: cell-based; conditions: Homo sapiens, HCT-116, 144 h, read-out: Prolif_HCT116-WT IC50
outcome-measure: IC50 (nM)

Reference set (4 entries):
>  <compound>
Cc1cc2cc(C(=O)N(Cc3ccc(N4CC5(COC5)C4)cn3)[C@H](C)c3ncccn3)ccc2nc1N

>  <endpoint-value>
10100

$$$$
>  <compound>
Cc1cc2cc(C(=O)N(Cc3ccc(C(F)(F)F)cn3)[C@H](C)c3ncccn3)cnc2nc1N (single isomer, unassigned)

>  <endpoint-value>
3830

$$$$
>  <compound>
CO[C@@H]1CCOC[C@H]1N(Cc1ccc(C(F)(F)F)cn1)C(=O)c1ccc2nc(N)c(C)cc2c1 (racemic) [Example 833]

>  <endpoint-value>
1190

$$$$
>  <compound>
Cc1cc2cc(C(=O)N(Cc3ncccc3F)[C@H]3COc4cc(C(F)(F)F)ccc43)ccc2nc1N (single isomer, unassigned)

>  <endpoint-value>
2350

$$$$

1. C[C@H](c1ncccn1)N(Cc1ccc(Cl)cn1)C(=O)c1ccc2nc(N)c(Br)cc2c1
2. N#CC[C@@H](C1CC1)N(Cc1ccc(C#N)cn1)C(=O)c1ccc2nc(N)c(I)cc2c1
Which gives the smaller IC50 number: 1 or 2 ? Answer with the label corresponding to your selection.
2

P. Cc1cc2cc(C(=O)N(Cc3ccccc3F)C3CC(c4ccc(OC(F)(F)F)cc4)C3)ccc2nc1N (centres unmarked)
Q. Cc1cc2cc(C(=O)N(Cc3ccc(N4CCOCC4)cn3)[C@H](C)c3ncccn3)ccc2nc1N
Which gives the smaller IC50 number: P or Q ? Answer with the label corresponding to your selection.
P
(P: 404 nM, Q: 4220 nM)

###

Reported IC50 values for a set of compounds
system: HCT116 WT cells; experiment: HCT116 proliferation assay, WT cells (CellTiter-Glo, 6 days); assay type: cell-based; settings: Homo sapiens, HCT-116, 144 h, read-out: Prolif_HCT116-WT IC50

>  <compound>
C[C@H](c1ncccn1)N(Cc1ccc(OCC(F)(F)F)nn1)C(=O)c1cnc2nc(N)c(Br)cc2c1

>  <study-system>
HCT116 WT cells

>  <endpoint-value>
> 10 µM

$$$$
>  <compound>
CC1COCCC1N(Cc1ccc(C(F)(F)F)cn1)C(=O)c1ccc2nc(N)c(Br)cc2c1 (stereo not drawn)

>  <study-system>
HCT116 WT cells

>  <endpoint-value>
> 10 µM

$$$$
>  <compound>
Cc1cc2cc(C(=O)N(Cc3cccc(O)c3)Cc3ccc(C(F)(F)F)cn3)ccc2nc1N

>  <study-system>
HCT116 WT cells

>  <endpoint-value>
> 1 µM

$$$$
>  <compound>
Cc1cc2cc(C(=O)N(Cc3ccc(C(F)(F)F)cn3)CC(C)C3CC3)ccc2nc1N (stereo not drawn)

>  <study-system>
HCT116 WT cells

>  <endpoint-value>
> 1 µM

$$$$
>  <compound>
Cc1cc2cc(C(=O)N(CCOC(F)(F)F)Cc3ccc(C(F)(F)F)cn3)ccc2nc1N

>  <study-system>
HCT116 WT cells

>  <endpoint-value>
> 10 µM

$$$$

Suppose we examine the compound C[C@H](c1ncccc1F)N(Cc1ccc(Br)nn1)C(=O)c1ccc2nc(N)c(Cl)cc2c1 ; what IC50 value has been reported?
> 10 µM

###

test system: HCT116 WT cells; test: HCT116 proliferation assay, WT cells (CellTiter-Glo, 6 days); assay type: cell-based; conditions: Homo sapiens, HCT-116, 144 h, read-out: Prolif_HCT116-WT IC50
pIC50: −log10 of the molar value.
outcome-measure: pIC50

Reference set (3 entries):
>  <molecule>
Cc1cc2cc(C(=O)N(Cc3ccc(C(=O)N(C)C)cn3)[C@H](C)c3ncccc3F)ccc2nc1N

>  <pIC50>
< 5.00

$$$$
>  <molecule>
COc1ccc(CN(C(=O)c2ccc3nc(N)c(C)cc3c2)[C@H](C)c2ncccn2)cn1 (single isomer, unassigned)

>  <pIC50>
< 5.00

$$$$
>  <molecule>
Cc1cc2cc(C(=O)N(Cc3ccc(C(F)(F)F)cn3)[C@@H]3c4ccccc4C[C@H]3O)ccc2nc1N

>  <pIC50>
< 6.00

$$$$

API: the following record is the query input.
Suppose we examine the molecule Cc1cc2cc(C(=O)N(Cc3ccc(C(F)(F)F)cn3)Cc3ccnc4[nH]ccc34)ncc2nc1N ; what pIC50 value has been reported?
< 6.00

###

system: HCT116 MTAP null cells; test: HCT116 proliferation assay, MTAP null cells (CellTiter-Glo, 6 days); format: cell-based; details: HCT116-MTAP null, 144 h, read-out: Protif_ HCT116-MTAP null IC50
outcome-measure: IC50 (nM)

I. Cc1cc2cc(C(=O)N(Cc3ccc(C(F)(F)F)cn3)[C@H](C)c3ncccn3)c(F)cc2nc1N [Example 429]
II. Cc1cc2cc(C(=O)N(Cc3ccc(Cl)cn3)CC(C)C)ccc2nc1N [Example 330]
III. Cc1cc2cc(C(=O)N(Cc3ccc(C(F)(F)F)cn3)Cc3cocn3)ccc2nc1N [Example 580]
IV. CCOc1ccc(CN(C(=O)c2ccc3nc(N)c(C)cc3c2)[C@H](C)c2ncccn2)nn1 [Example 377]
Rank the 4 compounds: largest IC50 first, smallest last. Please respond with the labels ordered as the question requires.
II, III, IV, I

P. Cc1cc2cc(C(=O)N(Cc3ccc(Cl)cn3)[C@H](C)c3ncccn3)c(F)cc2nc1N [Example 415]
Q. COc1ccc(CN(C(=O)c2ccc3nc(N)c(Br)cc3c2)[C@H](C)c2ncccc2F)nn1 [Example 736]
Which gives the smaller IC50 number: P or Q ? Answer with the label corresponding to your selection.
P
(P: 39 nM, Q: 151 nM)
